target: human recombinant GCL (Homo sapiens (Human), UniProt P48506); experiment: GCL enzyme profiling assay (ADP-Glo luminescence); type: biochemical; conditions: human recombinant GCL 5 nM, 1 h preincubation with ATP; read-out: GCL IC50
Sequence (P48506 whole entry): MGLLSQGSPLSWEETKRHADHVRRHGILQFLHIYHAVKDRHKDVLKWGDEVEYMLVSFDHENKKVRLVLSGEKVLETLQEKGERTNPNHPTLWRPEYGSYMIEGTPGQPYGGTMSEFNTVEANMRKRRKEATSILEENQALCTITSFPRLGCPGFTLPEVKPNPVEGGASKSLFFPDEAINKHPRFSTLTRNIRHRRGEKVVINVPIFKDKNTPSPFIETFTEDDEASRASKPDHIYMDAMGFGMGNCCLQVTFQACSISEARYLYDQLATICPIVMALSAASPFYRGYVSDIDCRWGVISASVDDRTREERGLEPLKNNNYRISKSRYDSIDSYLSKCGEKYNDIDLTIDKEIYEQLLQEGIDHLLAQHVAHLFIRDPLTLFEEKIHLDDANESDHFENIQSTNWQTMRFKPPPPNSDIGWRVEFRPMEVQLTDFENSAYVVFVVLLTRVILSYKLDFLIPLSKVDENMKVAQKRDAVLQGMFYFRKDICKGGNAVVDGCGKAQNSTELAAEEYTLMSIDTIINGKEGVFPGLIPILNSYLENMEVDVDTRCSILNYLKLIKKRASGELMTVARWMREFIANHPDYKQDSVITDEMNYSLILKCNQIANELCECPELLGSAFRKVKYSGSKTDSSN
For each record, write down the corresponding IC50.

Quick note, IC50 for CC(C)(C)CCS1(=O)=NC(=O)[C@@H](N)CC1 (stereo partly drawn) landed at 20 to 2000 µM

Quick note, IC50 for CCCC(C)(C)OC(=O)[C@@H](N)CCS(=N)(=O)CCCC(F)(F)F (stereo partly drawn) landed at > 2000 µM

Quick note, IC50 for CCCCOC(=O)[C@@H](N)CCS(=N)(=O)CCc1ccccc1Cl (stereo partly drawn) landed at 20 to 2000 µM

Quick note, IC50 for N=S(=O)(CCc1cccc(Cl)c1Cl)CC[C@H](N)C(=O)O (stereo partly drawn) landed at 20 to 2000 µM

Quick note, IC50 for CCCC(C)OC(=O)[C@@H](N)CCS(=N)(=O)CCCC(F)(F)F (stereo partly drawn) landed at 20 to 2000 µM

Quick note, IC50 for CC(C)(C)CCS(=N)(=O)CC[C@H](N)C(=O)NCc1ccccc1 (stereo partly drawn) landed at > 2000 µM

Quick note, IC50 for N=S(=O)(CC[C@H](N)C(=O)O)CCC1(NC(N)=O)CCC1 (stereo partly drawn) landed at 20 to 2000 µM

Quick note, IC50 for CC(C)OCCS(=N)(=O)CC[C@H](N)C(=O)O (stereo partly drawn) landed at 20 to 2000 µM

Quick note, IC50 for N=S(=O)(CCc1ccc(Cl)cc1)CC[C@H](N)C(=O)O (stereo partly drawn) landed at ≤ 20 µM

Quick note, IC50 for N=S(=O)(CCc1ccccc1Cl)CC[C@H](N)C(=O)O (stereo partly drawn) landed at ≤ 20 µM

Quick note, IC50 for CC(C)(C)CCS(=N)(=O)CC[C@H](N)C(=O)NC(CO)CO (stereo partly drawn) landed at > 2000 µM

Quick note, IC50 for N=S(=O)(CCCC(F)(F)F)CC[C@H](N)C(=O)OC1CCOCC1 (stereo partly drawn) landed at 20 to 2000 µM

Quick note, IC50 for N=S(=O)(CCC1CCOCC1)CC[C@H](N)C(=O)O (stereo partly drawn) landed at 20 to 2000 µM

Quick note, IC50 for COC(CC[S@@](=N)(=O)CC[C@H](N)C(=O)O)C(F)(F)F (stereo partly drawn) [Compound 176] landed at > 2000 µM

Quick note, IC50 for CC(C)(F)CCS(=N)(=O)CC[C@H](N)C(=O)O (stereo partly drawn) landed at 20 to 2000 µM

---

biological target: human recombinant GCL (Homo sapiens (Human)); experiment: GCL enzyme profiling assay (ADP-Glo luminescence); format: biochemical; conditions: human recombinant GCL 5 nM, 1 h preincubation with ATP; read-out: GCL IC50
pIC50: −log10 of the molar value.
Reported metric: pIC50

Note to self: pIC50 of CCCCOC(=O)[C@@H](N)CCS(=N)(=O)CCc1cccc(F)c1C(F)(F)F (stereo partly shown) with human recombinant GCL (Homo sapiens (Human)) was 2.70 to 4.70

Note to self: pIC50 of N=S(=O)(CC[C@H](N)C(=O)O)CCC(O)(c1ccccc1Cl)C(F)(F)F (stereo partly shown) with human recombinant GCL (Homo sapiens (Human)) was ≥ 4.70

Note to self: pIC50 of CCCCS(=N)(=O)CC[C@H](N)C#N (stereo partly shown) with human recombinant GCL (Homo sapiens (Human)) was < 2.70

Note to self: pIC50 of CCCCOC(=O)[C@@H](N)CCS(=N)(=O)CCC(C)(C)C (stereo partly shown) with human recombinant GCL (Homo sapiens (Human)) was 2.70 to 4.70

Note to self: pIC50 of CC(C)(CCS(=N)(=O)CC[C@H](N)C(=O)O)Cc1ccccc1 (stereo partly shown) with human recombinant GCL (Homo sapiens (Human)) was ≥ 4.70

Note to self: pIC50 of CC(C)(C)CCS(=N)(=O)CC[C@H](N)C(=O)Nc1ccncc1 (stereo partly shown) with human recombinant GCL (Homo sapiens (Human)) was < 2.70

Note to self: pIC50 of Cc1ccc(Cl)c(CCS(=N)(=O)CC[C@H](N)C(=O)O)c1 (stereo partly shown) with human recombinant GCL (Homo sapiens (Human)) was ≥ 4.70

Note to self: pIC50 of N=S(=O)(CCC(N)C(F)(F)F)CC[C@H](N)C(=O)O (stereo partly shown) with human recombinant GCL (Homo sapiens (Human)) was 2.70 to 4.70

Note to self: pIC50 of CC(C)(C)CCS(=N)(=O)CC[C@H](N)C(=O)Nc1ccccn1 (stereo partly shown) with human recombinant GCL (Homo sapiens (Human)) was 2.70 to 4.70

Note to self: pIC50 of N=S(=O)(CCc1ccccc1F)CC[C@H](N)C(=O)O (stereo partly shown) with human recombinant GCL (Homo sapiens (Human)) was 2.70 to 4.70
